Reported pIC50 is given for each of the following molecules.
Molecular target: human TYK2 kinase domain (JH1) (Homo sapiens)
Construct: recombinantly generated catalytic kinase (also known as JH1) domain of human JAK1, JAK2, JAK3 and TYK2
Sequence (P29597 897-1176 limits assumed): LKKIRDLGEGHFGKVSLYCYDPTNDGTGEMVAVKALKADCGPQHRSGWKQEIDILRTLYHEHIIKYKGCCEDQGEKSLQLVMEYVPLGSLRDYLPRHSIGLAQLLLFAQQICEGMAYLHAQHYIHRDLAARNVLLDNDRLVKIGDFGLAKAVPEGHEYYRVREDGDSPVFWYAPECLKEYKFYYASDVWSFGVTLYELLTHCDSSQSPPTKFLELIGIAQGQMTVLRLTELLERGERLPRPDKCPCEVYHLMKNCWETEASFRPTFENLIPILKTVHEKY
Assay: JH1 biochemical assay for TYK2 (ADP-Glo kinase assay, recombinant JH1 catalytic domain, JAK3-974 peptide, 10 μM ATP)
Conditions: JH1 kinase domain, ADP-Glo
pIC50: −log10 of the molar value. Counter-ions that a name gives are not always drawn.

Answered examples (3):
COc1cc(-c2cn3nccc3c(N3C[C@@H](C)[C@@](C#N)(C4CC4)C3=O)n2)c(F)cn1 [Example 196] :: 7.30 to 7.70
C[C@@H]1CN(c2ccnn3cc(-c4cnn(C5CCCC5)c4)cc23)C(=O)[C@]1(C#N)C1CC1 [Example 170] :: > 8.30
C[C@@H]1CN(c2ccnn3cc(-c4cccc5nccn45)cc23)C(=O)[C@]1(C#N)C1CC1 [Example 141, trifluoroacetate] :: 7.30 to 7.70

Please look up its pIC50: C[C@@H]1CN(c2ccnn3cc(-c4cn5c(n4)CCC5)cc23)C(=O)[C@]1(C#N)C1CC1 [Example 106, trifluoroacetate]
> 8.30

How about this molecule: CC[C@@H]1CN(c2ccnn3cc(-c4cnn(C)c4)cc23)C(=O)[C@@]1(C#N)C1CC1 [Example 26]
< 7.00

Moving on to COc1cc(-c2cc3c(N4CC[C@](C#N)(C5CC5)C4=O)ccnn3c2)ccn1 [Example 13]
< 7.00

Now give it for C[C@@H]1CN(c2ccnn3cc(-c4ncc(C#N)s4)cc23)C(=O)[C@]1(C#N)C1CC1 [Example 117, trifluoroacetate] too.
7.30 to 7.70

====

Target: Tyk2 kinase activity on STAT4 in NK92 cells (Homo sapiens, UniProt P29597)
Experiment: pSTAT4 cell assay (MSD; NK92 cells, 30 ng/mL IL2 stimulation)
Conditions: 30 ng/mL IL2, 15 minutes
Where a name gives a salt, the structure may show the parent alone.
Form field: IC50 (one value per entry).

Example entries and their recorded answers appear below.
CC(C)n1cc(-n2nc(N3C[C@@H](C)[C@@](C#N)(C4CC4)C3=O)c3ccncc32)cn1 :: > 100 nM
C[C@@H]1CN(c2ncnn3cc(-c4cnn(C)c4)cc23)C(=O)[C@]1(C#N)C1CC1 :: > 100 nM
C[C@@H]1CN(c2nc(-c3cnc4c(c3)CCN4)cn3nccc23)C(=O)[C@]1(C#N)C1CC1 :: 50 to 100 nM
C[C@@H]1CN(c2nc(-c3cnn(C4(C)COC4)c3)cn3ncc(F)c23)C(=O)[C@]1(C#N)C1CC1 :: > 100 nM
C[C@@H]1CN(c2nc(-c3cnn(C4CCOCC4)c3)cn3ncc(F)c23)C(=O)[C@]1(C#N)C1CC1 :: 50 to 100 nM

Shifting focus to the compound that follows.
Could you share which IC50 value was measured for CC(=O)Nc1cccc(-c2cc3c(N4C[C@@H](C)[C@@](C#N)(C5CC5)C4=O)ccnn3c2)n1 [Example 131, trifluoroacetate] ?
50 to 100 nM
